Hey, just so you know, these numbers are from PubChem BioAssay (NCI).

- Test system: 786-0 renal
- measurement_description: NCI-60 one-dose screen, 48 h
- conditions: 10 µM unless noted
The panel holds about 83,000 compounds, 20% with a hit somewhere; the sample as a whole holds those more often. Active and inactive are the calls of the source. Rule for the calls: active = growth percent below 10; inactive = the rest.
Possible outcomes: active, inactive

>  <compound>
CC(C)NC(=O)OCc1c(COC(=O)NC(C)C)c(-c2ccc(Cl)cc2)n2c1CCC2

>  <class_label>
inactive

$$$$
>  <compound>
CC(=O)N(CCCCCCN(C(C)=O)C(C)=O)C(C)=O

>  <class_label>
inactive

$$$$
>  <compound>
CCN(CC)c1ccc2nc3ccc(N=Nc4ccc(N(C)C)cc4)cc3[n+](-c3ccccc3)c2c1

>  <class_label>
active

$$$$
>  <compound>
NC(=S)c1c(N)n(C2OC(CO)C(O)C2O)c2ncnc(N)c12 (configuration not stated)

>  <class_label>
active

$$$$
>  <compound>
NC(CCl)=NCC12CC3CC(CC(C3)C1)C2

>  <class_label>
active

$$$$
>  <compound>
COC(=O)C1=C(C)C(=O)CC1

>  <class_label>
inactive

$$$$
>  <compound>
CN(CCCN(C)CCC1CCCCC1)CCC1CCCCC1

>  <class_label>
inactive

$$$$
>  <compound>
Cc1cc(C(=O)NN)c(C#N)c(=O)[nH]1

>  <class_label>
inactive

$$$$
>  <compound>
COC(c1ccc2c(c1)OCO2)C(C)Br (configuration not stated)

>  <class_label>
inactive

$$$$
>  <compound>
Cc1onc(-c2ccccc2Cl)c1C(=O)Cl

>  <class_label>
inactive

$$$$
>  <compound>
CC1(C)CCC(C)(C)NC(=S)N1

>  <class_label>
inactive

$$$$
>  <compound>
CC(c1ccccc1)N1C(=O)CSC1=S (configuration not stated)

>  <class_label>
inactive

$$$$
>  <compound>
O=C(Oc1ccccc1Cl)c1ccc(Cl)cc1Cl

>  <class_label>
inactive

$$$$
>  <compound>
CC(C)C(C)(C)C(=O)C(C)(C)C(C)(C)C

>  <class_label>
inactive

$$$$
>  <compound>
OCC1CCC(O)C(CO)N1 (configuration not stated)

>  <class_label>
inactive

$$$$
>  <compound>
CCCCN(C(=O)CC)c1ccccc1

>  <class_label>
inactive

$$$$
>  <compound>
C[n+]1c(/C=C\C=C\N2CCCCC2)sc2ccccc21

>  <class_label>
active

$$$$
>  <compound>
Cc1cc(CO)c(O)c(CO)c1

>  <class_label>
inactive

$$$$
>  <compound>
CC(=O)Nc1ccc(/C=C2\SC(=S)N(/C=C(\C(C)=O)C(N)=O)C2=O)cc1

>  <class_label>
inactive

$$$$
>  <compound>
CCN1CCCC(N2c3ccccc3Sc3ccccc32)C1 (configuration not stated)

>  <class_label>
inactive

$$$$
>  <compound>
CCCCn1cnc2c(=O)[nH]cnc21

>  <class_label>
inactive

$$$$
>  <compound>
CC(=O)CSc1ncnc2nc[nH]c12

>  <class_label>
inactive

$$$$
>  <compound>
C#CCSc1nnnn1-c1ccccc1

>  <class_label>
inactive

$$$$
>  <compound>
Cn1c(=O)c2[nH]c(CCCCC(=O)O)nc2n(C)c1=O

>  <class_label>
inactive

$$$$
>  <compound>
CC(C)(C)CC1(C)NC(=O)NC1=O (configuration not stated)

>  <class_label>
inactive

$$$$
>  <compound>
NNc1ncccn1

>  <class_label>
inactive

$$$$
>  <compound>
Nc1cc(F)ccc1[N+](=O)[O-]

>  <class_label>
inactive

$$$$
>  <compound>
c1ccc2[nH]c(Cc3nc4ccccc4[nH]3)nc2c1

>  <class_label>
inactive

$$$$
>  <compound>
CCOP(=O)(NC(c1ccccc1)c1ccccc1)OCC

>  <class_label>
inactive

$$$$
>  <compound>
Cc1ccc(C)c(CN(C)C)c1O

>  <class_label>
inactive

$$$$
>  <compound>
Cc1cccc(-[n+]2noc(N)n2)c1

>  <class_label>
inactive

$$$$
>  <compound>
COc1nc(Nc2cccc(C(F)(F)F)c2)nc(OC)n1

>  <class_label>
inactive

$$$$
>  <compound>
CC1CC2C3CCC4=CC(=O)CCC4(C)C3CCC2(C)C1(O)C(=O)CO (configuration not stated)

>  <class_label>
inactive

$$$$
>  <compound>
O=Cc1ccc(F)cc1

>  <class_label>
inactive

$$$$
>  <compound>
CC(C)c1ccccc1NC(=O)N1CCC(C(C)C)CC1

>  <class_label>
inactive

$$$$
>  <compound>
CC1CN(CCO)CC(C)O1 (configuration not stated)

>  <class_label>
inactive

$$$$
>  <compound>
C=C(C)[C@@H]1CC[C@]2(CO)CC[C@]3(C)[C@H](CC[C@@H]4[C@@]5(C)CC[C@H](O)C(C)(C)[C@@H]5CC[C@]43C)[C@@H]12

>  <class_label>
active

$$$$
>  <compound>
Cc1cc(Nc2ccc3c(c2)OCO3)c2cc3c(cc2n1)OCO3

>  <class_label>
inactive

$$$$
>  <compound>
CN(C)c1ccc(O)c2c1CC1CC3C(N(C)C)C(=O)C(C(N)=O)=C(O)C3(O)C(=O)C1=C2O (configuration not stated)

>  <class_label>
inactive

$$$$
>  <compound>
CCOC(=O)C1(N)CCCCC1

>  <class_label>
inactive

$$$$
>  <compound>
Cn1c(=O)c2nc3c(=O)n(C)c(=O)n(C)c3nc2n(C)c1=O

>  <class_label>
inactive

$$$$
>  <compound>
C=C1C(=O)C2CCC1C2 (configuration not stated)

>  <class_label>
inactive

$$$$

* * *

- Tested on: SK-OV-3 ovarian
- measurement_description: NCI-60 one-dose screen, 48 h (100 = growth as untreated, 0 = no growth, -100 = all killed)
- conditions: 10 µM unless noted
This is part of a sample that, as a whole, favours compounds with a hit. Of some 83,000 tested, about 20% had one in any assay.

>  <compound>
Cc1cc(Cc2ccccc2)c(O)c(Cc2ccccc2)c1

>  <growth / %>
102

$$$$
>  <compound>
COc1ccc(C2CC(c3ccccc3)=Nc3ccccc3S2)cc1 (stereo not drawn)

>  <growth / %>
95.3

$$$$
>  <compound>
O=C(OCc1ccccc1)n1nnc2ccccc21

>  <growth / %>
112

$$$$
>  <compound>
Nc1ncnc(Nc2ccc(C(F)(F)F)cc2)n1

>  <growth / %>
100

$$$$
>  <compound>
Cc1ccccc1CC(N)C(=O)O (stereo not drawn)

>  <growth / %>
104

$$$$
>  <compound>
O=C(NCCc1ccccc1)/C(=C\c1ccc(Cl)cc1Cl)NC(=O)c1ccccc1

>  <growth / %>
97.6

$$$$
>  <compound>
NC(=S)N/N=C/c1ccc(Cl)cc1

>  <growth / %>
118

$$$$
>  <compound>
NC(=S)N/N=C/c1ccc(OC(=O)COc2ccccc2)cn1

>  <growth / %>
90.4

$$$$

* * *

- System: T-47D breast
- measurement_description: NCI-60 one-dose screen, 48 h
- conditions: 10 µM unless noted
This is part of a sample that, as a whole, favours compounds with a hit. Of some 83,000 tested, about 20% had one in any assay. The source made the active and inactive calls. The calls were made as follows: active = growth percent below 10; inactive = the rest.
Classes used: true (1) = active, false (0) = inactive

>  <compound>
COc1ccc2c(Cl)cc(NC(=O)Nc3c(C)cccc3C)nc2c1

>  <class_label>
false (0)

$$$$
>  <compound>
Cc1cc(NC(=O)c2ccccc2)c(Cl)cc1N

>  <class_label>
false (0)

$$$$
>  <compound>
O=C1CSc2ccccc2N1

>  <class_label>
false (0)

$$$$
>  <compound>
COc1ccc(/C=C\C(=O)/C=C/c2ccc(OC)cc2)cc1

>  <class_label>
false (0)

$$$$
>  <compound>
CCOc1ccncc1[N+](=O)[O-]

>  <class_label>
false (0)

$$$$
>  <compound>
O=c1[nH]c(=O)c2cc(Cl)cc(Cl)c2[nH]1

>  <class_label>
false (0)

$$$$
>  <compound>
CCCCCCCCCCCCCCCCCCSC(=N)N

>  <class_label>
false (0)

$$$$
>  <compound>
COC1=C(OC)C(=O)C(SC/C=C(\C)CCCC(C)CCCC(C)CCCC(C)C)=CC1=O (stereo not drawn)

>  <class_label>
false (0)

$$$$
>  <compound>
COc1ccc(-c2csc(NC(=O)Nc3nc(-c4ccc(OC)cc4)cs3)n2)cc1

>  <class_label>
false (0)

$$$$
>  <compound>
O=S(=O)(O)c1ccc(O)c(C2CCCCC2)c1

>  <class_label>
false (0)

$$$$
>  <compound>
CCCC(=O)CC(=O)c1ccccc1

>  <class_label>
false (0)

$$$$
>  <compound>
C[n+]1c(/C=C\C=C\N2CCCCC2)sc2ccccc21

>  <class_label>
true (1)

$$$$
>  <compound>
O=C(CCl)Oc1ccc([N+](=O)[O-])cc1

>  <class_label>
false (0)

$$$$

* * *

- System: OVCAR-4 ovarian
- measurement_description: NCI-60 one-dose screen, 48 h (100 = growth as untreated, 0 = no growth, -100 = all killed)
- conditions: 10 µM unless noted
Compounds without any hit were thinned out: in the full panel of roughly 83,000, 20% have a hit.
measure: growth (%)

>  <molecule>
O=C(CCl)Nc1ccccc1SCc1cc(Cl)cc2c1OCOC2

>  <measure>
growth

>  <unit_abbrev>
%

>  <observed_measurement>
47.7

$$$$
>  <molecule>
COC1OC(C(COC(C)=O)OC(C)=O)C(OC(C)=O)C(OC(C)=O)C1OC(C)=O (stereo unspecified)

>  <measure>
growth

>  <unit_abbrev>
%

>  <observed_measurement>
107

$$$$
>  <molecule>
Cc1ccc(C)c2c1CCC2=O

>  <measure>
growth

>  <unit_abbrev>
%

>  <observed_measurement>
105

$$$$
>  <molecule>
Nc1ncnc2c1ncn2C1OC(CO)C2OC21 (stereo unspecified)

>  <measure>
growth

>  <unit_abbrev>
%

>  <observed_measurement>
109

$$$$
>  <molecule>
CC1(C)CCC(C)(C)NC(=S)N1

>  <measure>
growth

>  <unit_abbrev>
%

>  <observed_measurement>
107

$$$$
>  <molecule>
COC1OC(C(O)C(O)CO)C(O)C(O)C1O (stereo unspecified)

>  <measure>
growth

>  <unit_abbrev>
%

>  <observed_measurement>
109

$$$$
>  <molecule>
CC1CCC(C)(C)c2ccccc21 (stereo unspecified)

>  <measure>
growth

>  <unit_abbrev>
%

>  <observed_measurement>
98.2

$$$$
>  <molecule>
O=C1C=CC(=O)C2=C1CCCC2

>  <measure>
growth

>  <unit_abbrev>
%

>  <observed_measurement>
88

$$$$
>  <molecule>
CCN(CC)c1ccc2nc3ccc(N=Nc4ccc(N(C)C)cc4)cc3[n+](-c3ccccc3)c2c1

>  <measure>
growth

>  <unit_abbrev>
%

>  <observed_measurement>
-100

$$$$
>  <molecule>
COC(=O)c1ccc([N+](=O)[O-])c(C)c1

>  <measure>
growth

>  <unit_abbrev>
%

>  <observed_measurement>
101

$$$$
>  <molecule>
Oc1ccc2ccccc2c1CN1CCOCC1

>  <measure>
growth

>  <unit_abbrev>
%

>  <observed_measurement>
108

$$$$
